- experimental target: T1, CLDN6 endogenously expressed by human cancer cell lines (ARK2, OVCA429) (human, UniProt P56747 1-220)
- T1 construct: Untagged endogenous protein; also called Endogenous CLDN6+
- T1 sequence: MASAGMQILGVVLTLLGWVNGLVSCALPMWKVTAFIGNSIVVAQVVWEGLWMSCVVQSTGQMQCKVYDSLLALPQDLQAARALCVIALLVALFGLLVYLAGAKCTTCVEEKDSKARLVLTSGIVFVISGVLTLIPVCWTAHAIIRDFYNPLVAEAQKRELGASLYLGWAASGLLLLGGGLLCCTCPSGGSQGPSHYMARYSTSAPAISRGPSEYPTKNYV
- experimental protocol: FACS, AF647-labelled mAb, ARK2 cells
readout label: EC50 (nM)
Express the result in nM but write the number alone.

{"binder": "AB5 (antibody, V domains shown, Labelled with Alexa Fluor 647 NHS ester for FACS) VH: EVQLQQSGPELVKPGASVKMSCKASGYIFTHYIMHWVKQKPGQGLEWIGCINPYNDGTKYNEKFKGKATLTSDKSSSTAYMELSSLTSEDSAVYYCARYYGYPYYSMDYWGQGTSVTVSS VL: DVLMTQTPLSLPVSLGDQPSISCRSSQSIVHSNGNTYLDWYLQKPGQSPKLLIYKVSNRFSGVPDRFSGSGSGTDFTLKISRVEAEDLGVYYCFQGSHVPFTFGSGTRLEIK", "EC50, nM": 8}

Consider the record given below.
Looking up AB8 (antibody, V domains shown, Labelled with Alexa Fluor 647 NHS ester for FACS) VH: QVQLQQSGAELARPGASVKMSCKASGYTFTTYTMHWLKQRPGQGLEWIGYINPRSGYSNYNQKFKDKATLTADKSSNTAYMQLNTLTSEDSKVYYCSRGELGGFAYWGQGTLVTVSA VL: DVVMTQTPLSLPVSLGDQASISCRSSQSLVHSDGNTYLYWYLQKPGQSPKLLIYKVSNRFSGVPDRFSGSGSGTDFTLKISRVEAEDLGVYFCSQSTHVPYTFGGGTKLEIK , I see its EC50 listed as 1140

Origin of the recorded values: patent US20250333501A1
